run description: in vivo
measurement parameters: Beagle, dog, po, 3 mg/kg
measured parameter: bioavailability (%)
Lab book: enter the figure in %, no units written.

Can you share its bioavailability? I mean this molecule: `Cc1ccc2nc(CSc3nnc(NC(=O)Nc4cccc(C(F)(F)F)c4)s3)cc(=O)n2c1` 16

---

run description: in vivo
measurement parameters: Beagle, dog, plasma, iv, 0.2 mg/kg
measured parameter: Vd (L/kg)
Lab book: enter the figure in L/kg, no units written.

Can you share its Vd? I mean this compound: `Cc1ccc2nc(CSc3nnc(NC(=O)Nc4cccc(C(F)(F)F)c4)s3)cc(=O)n2c1` 0.164

---

run description: in vivo
measurement parameters: Beagle, dog, plasma, iv, 0.2 mg/kg
measured parameter: AUC(0-t)

Can you share its AUC(0-t)? I mean this molecule: `Cc1ccc2nc(CSc3nnc(NC(=O)Nc4cccc(C(F)(F)F)c4)s3)cc(=O)n2c1` 748 ng·h/mL

The measured values listed here are drawn from ChEMBL document CHEMBL4304826.
